Biological target: T1, HCV Core1-169 (HCV-1, UniProt P26664 1-169)
T1 construct: also called recombinant HCV core antigen
T1 sequence: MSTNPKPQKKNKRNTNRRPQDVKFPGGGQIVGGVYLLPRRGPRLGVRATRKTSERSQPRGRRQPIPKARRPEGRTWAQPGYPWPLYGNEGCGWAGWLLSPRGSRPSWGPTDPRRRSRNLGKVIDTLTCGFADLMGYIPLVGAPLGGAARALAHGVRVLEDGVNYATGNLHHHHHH
Test: EIA, core1-169 coated on plate; further: test concentration or dose not given here
measured_metric: OD (A492) (OD)

• HCV 208A-293 (antibody, V domains shown) VH: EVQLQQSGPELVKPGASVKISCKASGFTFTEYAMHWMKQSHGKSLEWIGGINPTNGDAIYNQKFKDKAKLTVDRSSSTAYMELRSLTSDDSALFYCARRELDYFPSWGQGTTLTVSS VL: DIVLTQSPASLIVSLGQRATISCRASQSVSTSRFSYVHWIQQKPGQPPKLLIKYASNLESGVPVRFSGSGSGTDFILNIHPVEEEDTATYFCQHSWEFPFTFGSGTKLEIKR = 1.41
